# pKi annotations
Target: mTOR enzyme (mTOR(1360-2549)+GBL) (Homo sapiens, UniProt P42345)
Sequence (P42345 1360-2549): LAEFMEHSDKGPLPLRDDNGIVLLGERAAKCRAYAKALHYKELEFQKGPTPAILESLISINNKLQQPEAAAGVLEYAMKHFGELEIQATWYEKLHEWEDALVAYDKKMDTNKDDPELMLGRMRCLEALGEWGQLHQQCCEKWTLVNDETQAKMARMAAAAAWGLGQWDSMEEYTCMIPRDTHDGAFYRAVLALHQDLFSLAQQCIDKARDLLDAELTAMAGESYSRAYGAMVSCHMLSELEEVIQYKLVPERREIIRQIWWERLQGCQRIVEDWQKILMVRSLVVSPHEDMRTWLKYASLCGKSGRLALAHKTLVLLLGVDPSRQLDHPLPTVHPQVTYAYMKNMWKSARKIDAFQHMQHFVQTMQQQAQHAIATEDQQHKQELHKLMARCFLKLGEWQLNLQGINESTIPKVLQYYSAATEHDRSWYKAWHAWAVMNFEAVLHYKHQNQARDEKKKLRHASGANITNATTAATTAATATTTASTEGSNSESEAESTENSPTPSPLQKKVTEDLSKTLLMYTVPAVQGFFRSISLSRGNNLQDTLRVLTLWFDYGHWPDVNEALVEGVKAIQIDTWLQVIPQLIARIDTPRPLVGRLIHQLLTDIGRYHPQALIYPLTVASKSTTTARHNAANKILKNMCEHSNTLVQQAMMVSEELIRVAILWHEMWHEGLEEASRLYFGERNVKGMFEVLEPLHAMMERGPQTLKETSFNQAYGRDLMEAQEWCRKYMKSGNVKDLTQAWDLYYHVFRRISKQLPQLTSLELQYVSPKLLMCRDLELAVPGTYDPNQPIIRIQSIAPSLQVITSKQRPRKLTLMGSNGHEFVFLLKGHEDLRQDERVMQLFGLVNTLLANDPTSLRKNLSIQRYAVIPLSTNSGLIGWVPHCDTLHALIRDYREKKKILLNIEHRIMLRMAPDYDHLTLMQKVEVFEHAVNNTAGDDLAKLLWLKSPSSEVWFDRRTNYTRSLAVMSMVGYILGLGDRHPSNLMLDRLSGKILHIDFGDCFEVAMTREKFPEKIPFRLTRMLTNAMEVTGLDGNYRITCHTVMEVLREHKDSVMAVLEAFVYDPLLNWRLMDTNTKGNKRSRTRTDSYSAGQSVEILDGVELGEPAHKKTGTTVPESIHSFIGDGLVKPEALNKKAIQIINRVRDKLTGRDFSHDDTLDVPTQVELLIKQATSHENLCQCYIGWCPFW
Sequence (Q9BVC4 whole entry partner): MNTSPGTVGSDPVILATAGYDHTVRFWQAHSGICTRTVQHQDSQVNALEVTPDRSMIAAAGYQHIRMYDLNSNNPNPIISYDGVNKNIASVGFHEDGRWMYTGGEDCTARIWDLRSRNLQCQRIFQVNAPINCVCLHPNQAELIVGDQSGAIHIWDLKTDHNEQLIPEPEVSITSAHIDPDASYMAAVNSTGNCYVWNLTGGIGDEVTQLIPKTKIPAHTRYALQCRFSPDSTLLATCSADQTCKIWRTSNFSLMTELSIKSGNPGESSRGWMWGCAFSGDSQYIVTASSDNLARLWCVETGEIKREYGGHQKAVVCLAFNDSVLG
Experiment Notes: In vitro mTOR kinase assay (TR-FRET)
Reported Conditions: Ki apparent, Morrison ATP-competitive tight binding equation; 8 uM ATP, 0.25 nM mTOR+GBL; read-out: activity level (Ki) in the mTOR kinase assay
In plain terms, pKi is the concentration in mol/L turned into minus its base-10 logarithm.

Examples with their reported pKi follow.
CCNC(=O)Nc1ccc(-c2nc(N3CCOC[C@@H]3C)c3nc(-c4cncnc4)n(CC)c3n2)cc1 [Compound 107] :: 8.52
CCNC(=O)Nc1ccc(-c2nc(N3CCOC[C@@H]3C)c3nc(C4(F)COC4)n(C)c3n2)cc1 [Compound 108] :: 8.52
CCNC(=O)Nc1ccc(-c2nc(N3CCOC[C@@H]3C)c3nc(C4(O)COC4)n(CC)c3n2)cc1 [Compound 111] :: 8.40

// query Complete the entry with pKi for CCn1c(C2CC2)nc2c(N3CCOC[C@@H]3C)nc(-c3ccc(Nc4cccc(=O)[nH]4)cc3)nc21 [Compound 112]
// result 8.22
